# Target desc: Mitogen-activated protein kinase kinase kinase 8 (Homo sapiens, UniProt P41279)
# Sequence (P41279 whole entry): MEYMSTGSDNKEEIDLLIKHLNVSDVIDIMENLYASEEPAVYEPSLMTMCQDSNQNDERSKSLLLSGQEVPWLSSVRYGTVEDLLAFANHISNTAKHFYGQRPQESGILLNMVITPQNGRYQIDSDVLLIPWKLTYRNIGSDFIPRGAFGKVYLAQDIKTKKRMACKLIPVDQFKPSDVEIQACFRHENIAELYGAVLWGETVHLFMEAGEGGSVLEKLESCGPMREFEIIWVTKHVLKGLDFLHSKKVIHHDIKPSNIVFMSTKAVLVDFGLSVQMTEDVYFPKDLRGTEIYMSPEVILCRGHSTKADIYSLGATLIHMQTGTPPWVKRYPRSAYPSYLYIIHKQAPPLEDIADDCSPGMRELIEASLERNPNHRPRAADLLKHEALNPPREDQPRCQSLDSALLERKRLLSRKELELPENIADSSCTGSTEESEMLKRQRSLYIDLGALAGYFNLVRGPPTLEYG
# Measurement protocol: Inhibition of recombinant COT
Readout kind: IC50 (µM)

>>> reading("COc1cc2c(c(O)c1-c1c(OC)cc(O)c3c1C(=O)C1=C(C3=O)[C@H](O)[C@@H](O)[C@@](C)(O)[C@@H]1O)C(=O)c1cc(O)c(C)cc1C2=O (single isomer, unassigned; atropisomer)")
6.79
>>> reading("COc1cc(O)c2c(c1)C(=O)c1cc(C)c(O)cc1C2=O")
27.1
>>> reading("COc1cc(O)c2c(c1)C(=O)c1cc(C)c(O)c(O)c1C2=O")
24.3

---

# Target desc: Aurora kinase A (Homo sapiens)
# Sequence (O14965 whole entry): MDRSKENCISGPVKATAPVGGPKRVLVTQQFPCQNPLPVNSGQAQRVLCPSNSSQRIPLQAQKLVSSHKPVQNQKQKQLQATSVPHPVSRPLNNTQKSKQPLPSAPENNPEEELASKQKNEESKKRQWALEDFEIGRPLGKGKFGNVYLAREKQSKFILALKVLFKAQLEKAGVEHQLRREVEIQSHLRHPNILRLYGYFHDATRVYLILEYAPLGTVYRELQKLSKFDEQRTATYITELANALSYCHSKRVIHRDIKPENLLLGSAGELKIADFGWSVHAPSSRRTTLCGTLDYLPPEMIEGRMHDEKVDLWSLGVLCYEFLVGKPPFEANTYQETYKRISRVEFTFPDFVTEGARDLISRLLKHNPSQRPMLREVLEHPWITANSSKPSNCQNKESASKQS
# Measurement protocol: Inhibition of recombinant Aurora A
pIC50: −log10 of the molar value.
# reported pIC50; entries follow
Readout kind: pIC50

>>> reading("COc1cc(O)c2c(c1)C(=O)c1cc(C)c(O)c(O)c1C2=O")
5.00
>>> reading("COc1cc(O)c2c(c1)C(=O)C1=C(C2=O)[C@H](O)[C@@H](O)[C@@](C)(O)[C@@H]1O")
5.41
>>> reading("COc1cc(O)c2c(c1)C(=O)c1cc(C)c(O)cc1C2=O")
5.17
>>> reading("COc1cc2c(c(O)c1-c1c(OC)cc(O)c3c1C(=O)C1=C(C3=O)[C@H](O)[C@@H](O)[C@@](C)(O)[C@@H]1O)C(=O)c1cc(O)c(C)cc1C2=O (single isomer, unassigned; atropisomer)")
5.34

---

# Target desc: Receptor-type tyrosine-protein kinase FLT3 (Homo sapiens)
# Sequence (P36888 whole entry): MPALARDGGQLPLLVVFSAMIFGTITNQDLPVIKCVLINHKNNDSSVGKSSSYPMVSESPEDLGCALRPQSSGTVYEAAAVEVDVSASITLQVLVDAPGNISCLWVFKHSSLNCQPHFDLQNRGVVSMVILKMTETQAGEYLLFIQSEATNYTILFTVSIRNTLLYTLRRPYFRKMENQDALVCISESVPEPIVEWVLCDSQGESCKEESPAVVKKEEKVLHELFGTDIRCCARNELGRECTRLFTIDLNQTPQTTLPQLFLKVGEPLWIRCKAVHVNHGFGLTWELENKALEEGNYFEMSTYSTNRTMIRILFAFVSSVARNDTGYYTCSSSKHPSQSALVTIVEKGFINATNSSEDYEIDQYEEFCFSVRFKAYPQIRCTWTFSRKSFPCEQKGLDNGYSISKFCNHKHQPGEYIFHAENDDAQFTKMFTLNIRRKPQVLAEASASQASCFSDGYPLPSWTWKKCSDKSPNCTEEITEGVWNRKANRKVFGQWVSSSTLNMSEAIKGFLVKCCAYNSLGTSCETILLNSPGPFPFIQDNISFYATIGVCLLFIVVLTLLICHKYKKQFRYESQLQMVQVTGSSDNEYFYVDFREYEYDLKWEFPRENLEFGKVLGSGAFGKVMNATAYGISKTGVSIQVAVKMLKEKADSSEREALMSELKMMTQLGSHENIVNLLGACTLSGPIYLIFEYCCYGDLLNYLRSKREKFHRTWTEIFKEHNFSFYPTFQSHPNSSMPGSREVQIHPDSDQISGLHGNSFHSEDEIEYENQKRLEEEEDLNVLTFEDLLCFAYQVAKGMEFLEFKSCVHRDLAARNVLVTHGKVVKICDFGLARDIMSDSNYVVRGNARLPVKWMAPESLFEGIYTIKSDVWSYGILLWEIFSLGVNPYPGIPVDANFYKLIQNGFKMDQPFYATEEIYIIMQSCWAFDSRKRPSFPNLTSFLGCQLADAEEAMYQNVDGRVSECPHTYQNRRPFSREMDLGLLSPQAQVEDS
# Measurement protocol: Inhibition of recombinant FLT3
pIC50: −log10 of the molar value.
# reported pIC50; entries follow
Readout kind: pIC50

>>> reading("COc1cc(O)c2c(c1)C(=O)C1=C(C2=O)[C@H](O)[C@@H](O)[C@@](C)(O)[C@@H]1O")
4.85
>>> reading("COc1cc(O)c2c(c1)C(=O)c1cc(C)c(O)cc1C2=O")
5.52
>>> reading("COc1cc(O)c2c(c1)C(=O)c1cc(C)c(O)c(O)c1C2=O")
5.08
>>> reading("COc1cc2c(c(O)c1-c1c(OC)cc(O)c3c1C(=O)C1=C(C3=O)[C@H](O)[C@@H](O)[C@@](C)(O)[C@@H]1O)C(=O)c1cc(O)c(C)cc1C2=O (single isomer, unassigned; atropisomer)")
5.34

---

# Target desc: Aurora kinase B (Homo sapiens)
# Sequence (Q96GD4 whole entry): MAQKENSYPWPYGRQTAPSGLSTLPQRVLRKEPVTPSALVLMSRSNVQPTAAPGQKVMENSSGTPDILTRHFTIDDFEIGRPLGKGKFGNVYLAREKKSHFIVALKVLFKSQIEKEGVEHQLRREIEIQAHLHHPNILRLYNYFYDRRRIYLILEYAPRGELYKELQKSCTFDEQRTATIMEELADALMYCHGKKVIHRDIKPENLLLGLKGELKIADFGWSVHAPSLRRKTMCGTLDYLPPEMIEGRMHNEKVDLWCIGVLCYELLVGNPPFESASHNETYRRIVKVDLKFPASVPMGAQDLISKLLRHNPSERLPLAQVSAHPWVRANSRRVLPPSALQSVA
# Measurement protocol: Inhibition of recombinant Aurora B
pIC50: −log10 of the molar value.
# reported pIC50; entries follow
Readout kind: pIC50

>>> reading("COc1cc(O)c2c(c1)C(=O)C1=C(C2=O)[C@H](O)[C@@H](O)[C@@](C)(O)[C@@H]1O [ALTERSOLANOL A]")
5.65
>>> reading("COc1cc(O)c2c(c1)C(=O)c1cc(C)c(O)c(O)c1C2=O")
5.22
>>> reading("COc1cc2c(c(O)c1-c1c(OC)cc(O)c3c1C(=O)C1=C(C3=O)[C@H](O)[C@@H](O)[C@@](C)(O)[C@@H]1O)C(=O)c1cc(O)c(C)cc1C2=O (single isomer, unassigned; atropisomer) [ALTERPORRIOL G/H]")
5.41
>>> reading("COc1cc(O)c2c(c1)C(=O)c1cc(C)c(O)cc1C2=O [MACROSPORIN]")
5.64

Source listed as ChEMBL document CHEMBL1151842.
